experiment: yeast display, Sf9 membrane polyspecificity reagent, FACS + sequencing; frameworks hold sequencing errors
READOUT_TYPE: polyreactivity (PSR sort gate)

Solved cases (4 shown):
Look up polyreactivity (PSR sort gate) for this sequence: "QVQLVESGGGLVQAGGSLRLSCAASGLIFTWNAMGWYRQATGKERELVAAISTGGSTSYADSVKGRFTISRDNAKNTVYLQMNSLKPEDTAVYYCARDSSIWSHGSWYDYWGQGTQVTVSS"
low polyreactivity

I'd like to know its polyreactivity (PSR sort gate). The sequence in question is "QVQLVESGGGLVQAGGSLRLSCAASGFIFRDNAMGWYRQAPGKERELVAAISKSGGRTYYADSVKGRFTISRDNAKNTVYLQMNCLKPEDTAVYYCAADAYHFGRMDYWGQGTQVTVSS"
high polyreactivity

Which polyreactivity (PSR sort gate) is listed for "QVQLVESRGGLVQAGGSLRLSFPASGFTQEFYAMGWYRQAPGKERELVASISSGGRTNYADSVKGRFTISRDNAKYTVYLQMNSLKPEDTAVYYFAAEYRSWGRYRYRFNYWGQGTQVTVSS" ?
high polyreactivity

// query polyreactivity (PSR sort gate) value for entry "QDQLVESGGGLDQAGGSLRLSCAAYGSTFGYYALGWSRQAPGKERELVAAISWSGSNTYYADSVKGRFTISRDNAKNTVYLQMNSLTPEDTAVYYCAAVYRGSRAWGYDYWGQGTQVTVSS"
high polyreactivity

Continuing:
Entry "QVQLVESGGGLVQAGGSLRLSCAASGRIFRWYTMGWYRQAPGKEREFVDAITWSDTSTSYADSVKGRFTISRDNAKNTVYLQMNSLKPEDTAVYYCNAATRSSVTFGWYIEYDYWGQGTQVTVSS" has what polyreactivity (PSR sort gate)?
low polyreactivity

----------
experiment: yeast display, Sf9 membrane polyspecificity reagent, FACS + sequencing; frameworks hold sequencing errors
READOUT_TYPE: polyreactivity (PSR sort gate)

Request the reported polyreactivity (PSR sort gate) associated with "QLQLVESGGGLVQAGGSLRLSCAASGNTFFPYTMGWYRQAPGKERELVAAITWSGVSTYYADSVKGRFTISRDNAKYTVDLQMNSLKPEDTAVYYCAAPSTGTYGSDYWGQGTQVTVSS"
high polyreactivity

Given "QVQLGESGGGLVQAGGSLRLSCAASGSIFRSYAMGWYRQAPGKERELVAAISWRGGRTYYADSVKGRFTISRDNAKNTVYLQMNSLKPEDTAVYYCAARNRAQQGTRDHDYWGQGTQVTLSS" , state its recorded polyreactivity (PSR sort gate).
high polyreactivity

# lookup: polyreactivity (PSR sort gate) of "QVQLVDSGGGLVQAGGSLRLSCAAYGLTFTYYDMGWYRQAPGNERELVATFSWSDSSTYADSVKGRFTISRDNAKNTVYLQMNSLKPEDTAVYYCNKVSYYTYDVDYWGQRTQVTVSS"
low polyreactivity

Tell me the measured polyreactivity (PSR sort gate) of "QVQLVESGGGLVQAGGSLRLSCAASGLTFGDYVMGWYRQAPGKERELVATITSDGGTTYADSVKGRFTISRDNAKNTVYLQMNSLKPEVTAVYYCYADAVVDNYVGFSAAGFDYWGQGTQVTVSS" , please.
low polyreactivity

Tell me the measured polyreactivity (PSR sort gate) of "QVQLVESGGGLVQAGGSLRLSCAASGLTFALYAMGWYRQAPGKERELVAAITGSGGSTYYADSVKGRFTISRDTAKNSVYLQMNSLKPEDTAVYYCNKLFYRWRIVDKYYYCGQGTQVTVSS" , please.
high polyreactivity

Tell me the measured polyreactivity (PSR sort gate) of "HVQLVESGGGLVQAGGSLRLSCAASGSIFVLNAMGWYRQAPGKERELVAAITNVGSTYYADSVKGRFTISRDNAKNTVYLQMNSLKPEDTAVYYCNADPGEVLVGYDYWGQGTQVTVSS" , please.
low polyreactivity

For "QVQLVESGGGLVQAGGSLRLSCAASGSIFWYNAMGWYRQAPGKERELVAAIRWRGGSTYYADSVKGRFTISRDNAKNTVYLQMNSLKPEDTAVYYCARDRYYRTLGYGYWGQGTQVNVSS" , what is its reported polyreactivity (PSR sort gate)?
high polyreactivity

Need polyreactivity (PSR sort gate), item "QVQLVESGGGLVQAGGSLRLSCAASGFIFTYYDMGWYRQAPGKERELVASISWDGGRTYYADSVKGRFTISRDNAKNTVYLQMNSLKPEDTAVYYCAKRLGGSPIQARGDYWGQGTQVTVSS"
low polyreactivity

If you can, please state the reported polyreactivity (PSR sort gate) value of "QVQLVESGGGLVQAGGSHRLSCAASGYIFDYNDMGWSRQAPGKERELVAAITYSRGSTYYADSVKGRFTISRDNAKNTVYLQMNSLQPEDTAVYYCAATFRSRGYSARRYYYWGQGTQVTVST" .
high polyreactivity

Please report the recorded polyreactivity (PSR sort gate) for "QVQLVESGAGLVQAAASLRLSCAASGRTFIYYSMGWYRQAPGKEREFVAIISWNGTSTNYADSVKGRFTISRDNAKNTVYLQMNSLKPEDTAVYYCAASFWTDYYRYDYWGQGTQVTVSS" .
low polyreactivity

Next:
Which polyreactivity (PSR sort gate) value is on record for "QVQLVESGGGLVQAGGSLRLSCAASGLIFHTYAMGWYRQAPGKERELVAAIRGGGSTNYADSVKGRFTISRDNAKNTVYLQMKSLKPEDTAVYYCNATWNLFPGVLDRYDYWGQGTQVTVSS" ?
low polyreactivity

Consider the sequence shown here: "QVQLVESGGGLVQAGGSLRLSCAASGSTFFPYAMGWYRQAPGKERELVAGISSDGGTSYADSVKGRFTISRDNAKNTVYLQMNSLKPEDTAVYYCAALQADRDRYPAFDLMDYWGQGTQVTVSS" What is its recorded polyreactivity (PSR sort gate)?
low polyreactivity

----------
assay: yeast display, Sf9 membrane polyspecificity reagent, FACS + sequencing; frameworks hold sequencing errors
READOUT_TYPE: polyreactivity (PSR sort gate)

Which polyreactivity (PSR sort gate) is listed for "QVQLVESGGGLVQAGGSLRLSCAASGSTFSYYAMGWYRQAPGKERELVAANTSGCRSKYADSVKGRFTISRDNAKNTVYLQINSLKPEDTAVYYCAKRIENFSGSLAGRWYDYWGQGTQVNVSS" ?
high polyreactivity

What measured polyreactivity (PSR sort gate) goes with "QVQLVESGGGLVQAGGSLRLSCAASGFTFRNYAMGWYRKAPGKERELVATIDRGTTSTYYADSVKGRFTISRDNAKNTVYLQMNSLKPEDTAVYYCAARAWRYGYGYWGQGTQVTVSS" ?
high polyreactivity

Could you share which polyreactivity (PSR sort gate) value was measured for "QVQLVESGGGLVQAGGSLRLSCAASGFTFGGYVMGWYRQAPGKERELVAAISSSGGITHYADSVKGRFTISRDNAKNTVYLQMNSLKPEDTAVYYCNALYRQRYYWGQGTQVTVSS" ?
high polyreactivity

----------
assay: yeast display, Sf9 membrane polyspecificity reagent, FACS + sequencing; frameworks hold sequencing errors
READOUT_TYPE: polyreactivity (PSR sort gate)

Request the reported polyreactivity (PSR sort gate) associated with "QVQLVESGGGLVQAGGSLRLSCAASGIIFRRYAMGWYRQEPGKARELVAAITSGGDTNYADSVKGRFTLSRDNAKNTVYLQMNSLKPEDTAVYYCNAGLRGVRRYGFDYWGQGTQVTVSS"
high polyreactivity

Please give the measured polyreactivity (PSR sort gate) for this sequence: "QVQLVESGGGLVQAGGSLRLICAASGSIFSLYAMGWYRQAPGKQREFVASISRSGGITYYADSVKGRFTISRDNEKNTVYLQMISLKPEDTAVYYCAAVGWVSYRRYDYWGQGTQVTVSS"
high polyreactivity

// polyreactivity (PSR sort gate) lookup, key: "QVQLVESRGGLVQAGGSLRLSYAASGITFRKYAIGWYRQAPGKESELVAAISWSGGSTYYADSVKGGFTISRDNAMNTVYLQMNSMKPEDTAVYYCAAPHWSPYDYWGQGTQVTVSS"
high polyreactivity

// polyreactivity (PSR sort gate) lookup, key: "QVQLVESGGGLVQAGGSLRLSCAASGITVWIYAMGWYRQAPGKERELVAAITGRGGSTYYADSVKGRFTISRDKAKNTLYLQRNSLKPEDTAVYYCAAESWYSTYDYWGQGTQVTVSS"
high polyreactivity

Query: polyreactivity (PSR sort gate); subject: "QVQLVESGGGLVQAGGSLRISCAASGRTFGSYSMGWYRQAPGNEREEVAAISLSAGSTYYADYVKGRFTISRDNAKNTVYLQMNRLKAEDTAVYYCAAGTKWYSQVYIYFYWGQGTQVTVSS"
low polyreactivity

More entries:
GET /values?readout=polyreactivity (PSR sort gate)&item= "QVHLVESGGGLVQAGGSLRLSCAASVRTFYRNAMGWYRQAPGKERELVAAITRSGSTNYADSVKGRFTISRDNAKNTVYLQMNSLKPEDTAVYYCAAKFFRNTYSYGMDYWGQGTQVTVSS"
high polyreactivity

Could you tell me which polyreactivity (PSR sort gate) is on file for "QVQLLESGGGLVQAGGSLRLTCAASGSTFSPNAMGWYRQAPGKERELVAAITYRGANTYYADSVKGRFTISRDNAKITVYLQMNSLKPEDTAVYYCDAEYAYHHVGFGYWGQGTQVTVSS" ?
low polyreactivity

What value of polyreactivity (PSR sort gate) has been reported for the following sequence? "QDQHVESGGGLVHAGGSLRLSCAASGRIFKVYAMGWYRQPPGKERQLVASIRWNTGSTYYADSVKGRFTISRDNAKNTVYLQMNSLKPEDTAVYYCNSRGYYQGRYGYWGQGTQVTVSS"
high polyreactivity

Could you tell me which polyreactivity (PSR sort gate) is on file for "QVHLVESGVGLVQARGSLRLSCASSGSTFGGNAMGWYRQAPGTERELVAAIDSGGGTNYADSVKGRFTIARDNAKNTVYLQMTSLKPEDTAVYYCNADWAVRSTQNSSSGHDYWGQATQVTVSS" ?
low polyreactivity

Which polyreactivity (PSR sort gate) is reported for this sequence? "QVQLVESGGGLVQAGGSLRLSCAASGSIFDVNTMGWYRQAPGKERELVAAITNGDRTNYADSVKGRFTISRDNAKNTVYLQMNSLKPEDTAVYYCAADSVLDRPVLYLWPWYLGDYWGQGTQVTVSS"
low polyreactivity

Recorded polyreactivity (PSR sort gate) for "QVQLVESVGGLVQAGGSLRLSCAASGITFGRNTMGWYRQAPGKERELVAAISWNGDSTYYADSVKGRFTISRDNAKNTVYLQMNSLKPEDTAVYYCNADDVFLYQTDGLGDYWGQGTQVTVSS" , please?
low polyreactivity

Form field: reported polyreactivity (PSR sort gate) of "QVQLVESGGGLVQAGGSLRLSCAASGIIFGTNAMGWYRQAPGKERELVAAIRVTGGSTYYADSVKGRFTISRDNAKNTVYLQMNSLKPEDTAVYYCARDSWFVVDMDYWGQGTQVTVSS"
low polyreactivity
